The measured values listed here are drawn from patent US10570157B2.

Recorded metric: melting point

Past entries and their recorded results:
Lab note: CC(=O)C1=C(C(Cl)(Cl)Cl)N[B-](c2ccccc2)(c2ccc(C)cc2)[O+]=C1N (centres unmarked) gave melting point of 141 to 143 °C

Lab note: `CC(=O)C1=C(C(Cl)(Cl)Cl)N[B-](c2ccccc2)(c2ccccc2)[O+]=C1NC1CCCCC1` gave melting point of 53 to 54 °C

Lab note: `CC(=O)C1=C(C(Cl)(Cl)Cl)N[B-](c2ccc(C)cc2)(c2ccc(C)cc2)[O+]=C1N` gave melting point of 145 to 148 °C (dec.)

Lab note: `CC1=[O+][B-](c2ccccc2)(c2ccccc2)NC(C(Cl)(Cl)Cl)=C1C(=O)OC(C)(C)C` gave melting point of 147 to 149 °C

For the next question, use this molecule.
Lab note: `CC(=O)C1=C(C(Cl)(Cl)Cl)N[B-](c2ccccc2)(c2ccccc2)[O+]=C1NCc1ccc2ccc3cccc4ccc1c2c34` gave melting point of 167 to 169 °C (dec.)
